Please respond with reported cytotoxicity at 10 µM for every item in the list.
assay: Toxicity liver stage against HepG2, at 10uM; assay type: cell-based; parameters: test concentration 10 uM, cell line HepG2-A16-CD81EGFP; settings: human, HepG2-A16-CD81EGFP cells; read-out: INHIBITION
Give bare numbers, in %.

[[record]]
compound = "CCOc1cc(Cl)ccc1CNC(=O)N1CCCC(CO)C1 (stereo not given)"
value_kind = "cytotoxicity at 10 µM"
unit = "%"
observed_result = 9.54

[[record]]
compound = "COc1ccc(NC(=O)N(CCO)Cc2ccsc2)cc1"
value_kind = "cytotoxicity at 10 µM"
unit = "%"
observed_result = 1.37

[[record]]
compound = "Cc1ccc(N2CCCN(C(=O)CCCn3ccnc3C)CC2)nn1"
value_kind = "cytotoxicity at 10 µM"
unit = "%"
observed_result = -3.83

[[record]]
compound = "Cn1nnc2c(sc3nc(N4CCOCC4)c4c(c32)CCC4)c1=O"
value_kind = "cytotoxicity at 10 µM"
unit = "%"
observed_result = -12.4

[[record]]
compound = "CSCCC(Nc1nc(C)cc(C)n1)C(=O)NC(C)(C)CO (stereo not given)"
value_kind = "cytotoxicity at 10 µM"
unit = "%"
observed_result = -5.15

[[record]]
compound = "Cn1nc(COc2cncnc2)c2c1CCN(Cc1ccccn1)C2"
value_kind = "cytotoxicity at 10 µM"
unit = "%"
observed_result = 9.67


Report cytotoxicity at 10 µM for each item below.
1. CCN1CCC(=O)N(C)Cc2cc(F)ccc21
2. Cc1n[nH]c(C)c1-c1cnc(CC2CCN(C)C2)cn1 (stereo not given)
3. CCOc1c(F)cccc1C(=O)N(C)CCc1ccccn1
4. Cc1ccn(Cc2nc(C(C)OCC(C)C)no2)c(=O)c1 (stereo not given)

9.78
-2.11
18.6
5.56

Report cytotoxicity at 10 µM for each item below.
1. Cc1cccc(S(=O)(=O)NC(=O)CCc2cscn2)c1
2. Cc1nc(CC(=O)N2CCCN(c3ccc(C#N)cc3)CC2)cs1
3. CCC(C)NC(=O)CS(=O)(=O)Cc1cc(Cl)c2c(c1)OCCCO2 (stereo not given)
4. O=C(CCS(=O)(=O)C1CCCC1)NCCc1ccc2c(c1)OCCO2
5. CC(C)C(Sc1nnnn1C1CC1)C(=O)NCc1cccnc1 (stereo not given)
6. Cc1nn(C)c(C)c1-c1cc(-c2cc(CC(=O)O)cs2)nc(N)c1C#N

1: 0.983; 2: 2.37; 3: 2.19; 4: -1.29; 5: -0.267; 6: 0.701

Report cytotoxicity at 10 µM for each item below.
1. CC(C)CCC(=O)NC(C#N)CC(C)C (stereo not given)
2. Cn1nnc2c1CCN(Cc1ccco1)C2COCc1ccccc1 (stereo not given)
3. CCn1cc(NC(=O)C2CCN(CC(=O)NCC(C)C)CC2)cn1
4. O=C(Cc1ccc2c(c1)CCO2)N1CCN(c2ccncc2)CC1

2.53
-133
-7.52
-4.8

All figures here come from ChEMBL document CHEMBL4513216.
